TARGET OR SYSTEM: Acyl-CoA (8-3)-desaturase (Rattus norvegicus)
PROTOCOL SUMMARY: Inhibition of delta5 desaturase in Sprague-Dawley rat liver microsome at 10 uM
Type: microsomes
Calls of active or inactive are those of the source. The rule behind the calls is not given here.
ENDPOINT: inhibition

Known inhibition results, listed for orientation:
CC(C(=O)N1CCN(c2ccc(C(=O)NCCC3CC3)nn2)CC1)(C(F)(F)F)C(F)(F)F :: inactive
O=C(NCCCc1ccccc1)c1ccc(N2CCN(C(=O)c3ccccc3C(F)(F)F)CC2)nn1 :: inactive
O=C(NCCC1CC1)c1ccc(N2CCN(C(=O)c3cc(Cl)ccc3C(F)(F)F)CC2)nn1 :: inactive
Cc1cc(C(=O)N2CCN(c3ccc(C(=O)NCCC4CC4)nn3)CC2)c(C(F)(F)F)o1 :: inactive

Shifting focus to the compound that follows.
Prompt: Could you please provide reported inhibition for O=C(NC[C@@H](O)c1ccccc1)c1ccc(N2CCN(C(=O)c3ccccc3C(F)(F)F)CC2)nn1 ? Thanks!
Response: inactive
